Catalogue of binders with associated % Blockade of IFNγ release, MLR; D7
Molecular target: T1, human CD48 (on primary human peripheral blood mononuclear cells) (human, UniProt P09326 27-220)
T1 sequence: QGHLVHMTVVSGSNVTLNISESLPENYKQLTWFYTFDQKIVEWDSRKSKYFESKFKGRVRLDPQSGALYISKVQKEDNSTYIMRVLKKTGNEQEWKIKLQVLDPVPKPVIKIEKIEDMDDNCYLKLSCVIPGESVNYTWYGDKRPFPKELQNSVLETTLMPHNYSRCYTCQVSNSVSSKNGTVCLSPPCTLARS
Assay: cell-based or functional assay
# output: bare number, implied unit %

{"binder": "H4H1772P (antibody, human IgG4, V domains shown, Human IgG4 Fc (H4H)) VH: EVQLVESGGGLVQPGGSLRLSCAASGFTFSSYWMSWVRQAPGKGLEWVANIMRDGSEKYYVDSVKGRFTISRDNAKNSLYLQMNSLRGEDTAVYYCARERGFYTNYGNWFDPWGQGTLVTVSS VL: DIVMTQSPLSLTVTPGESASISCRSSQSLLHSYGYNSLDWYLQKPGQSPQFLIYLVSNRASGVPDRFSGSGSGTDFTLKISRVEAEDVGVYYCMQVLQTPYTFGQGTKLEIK", "% Blockade of IFNγ release, MLR; D7 (%)": 58}

// switching to the query binder
The recorded % Blockade of IFNγ release, MLR; D7 for H4H1775P (antibody, human IgG4, V domains shown, Human IgG4 Fc (H4H)) VH: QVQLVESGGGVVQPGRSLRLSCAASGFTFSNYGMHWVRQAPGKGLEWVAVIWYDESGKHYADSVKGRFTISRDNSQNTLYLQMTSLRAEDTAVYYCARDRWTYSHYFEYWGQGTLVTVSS VL: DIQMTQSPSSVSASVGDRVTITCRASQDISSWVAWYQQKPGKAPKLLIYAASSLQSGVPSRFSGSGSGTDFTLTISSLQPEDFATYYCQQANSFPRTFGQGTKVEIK is 69

Reference for the values: patent US20130230533A1
